Tested on: sera from patients infected with group O HIV-1 retroviruses
Experiment: Immunoenzymatic test: Test No. 1 (immunoreactivity of peptides coated on microplates)
Type: binding, human
Parameters: key: >: signal greater than the reading capacity of the spectrophotometer
Details: serum 4489*; cyclized peptide 2 μg/ml

| Seq text | ABSORBANCE |
| --- | --- |
| LLSLWGCRGKAVCYTSVQWNET [PEPTIDE No. 1 (2B)] | > |
| LLSSWGCKGRLVCYTSVQWNET [PEPTIDE No. 3 (4B)] | > |
| LLSLWGCRGRLVCYTSVQWNET [PEPTIDE No. 2 (3B)] | > |

* * *

System: serum samples from patients infected with group O HIV-1 retroviruses
Assay: Immunoenzymatic test: Test No. 2 (immunoreactivity with diluted sera)
Format: binding, human
Conditions: CLASS C (c: 0.500<OD<1.000); sera of Table V; solid phase peptide 2 μg/ml
Measurement kind: Number of samples
Give the value as a plain number.

| Seq text | Number of samples |
| --- | --- |
| RALETLLNQQRLLNSWGCKGRLVCYTSV [PEPTIDE No. 15 (22B)] | 4 |
| RLNSWGCKGRLVCYTSV [PEPTIDE No. 16 (23B)] | 1 |
| LNQQRLLNSWGCKGRLVCYTSV [PEPTIDE No. 14 (21B)] | 4 |

Request: Lab request: please report Number of samples under test system serum samples from patients infected with group O HIV-1 retroviruses for ALETLLQNQQLLNIWGCRGRLVCYTSVRWNET [PEPTIDE No. 12 (19B)]
Response: 2

* * *

System: sera from patients infected with group O HIV-1 retroviruses
Test: Immunoenzymatic test: Test No. 1 (immunoreactivity of peptides coated on microplates)
Type: binding, human
Design: key: >: signal greater than the reading capacity of the spectrophotometer
Settings: serum 7443; cyclized peptide 2 μg/ml
Measurement kind: ABSORBANCE

| Seq text | Reported measurement |
| --- | --- |
| LLSSWGCKGRLVCYTSVQWNET [PEPTIDE No. 3 (4B)] | > |
| LLSLWGCRGRLVCYTSVQWNET [PEPTIDE No. 2 (3B)] | > |
| LLSLWGCRGKAVCYTSVQWNET [PEPTIDE No. 1 (2B)] | > |

* * *

System: sera from patients infected with group O HIV-1 retroviruses
Test: Immunoenzymatic test: Test No. 1 (immunoreactivity of peptides coated on microplates)
Assay type: binding, human
Parameters: key: >: signal greater than the reading capacity of the spectrophotometer
Details: serum 3136; cyclized peptide 2 μg/ml
No end group written: not given here.
Measurement kind: ABSORBANCE

| Seq text | Reported measurement |
| --- | --- |
| RLLALETFIEENELLNLWGCKNRAICYTSVKWNKT (cysteine pairing not given here) [VAU 35 AA, reference compound] | > |
| LLNLWGCKNRAICYTSVKWNKT (cysteine pairing not given here) [VAU 22 AA, reference compound] | > |
| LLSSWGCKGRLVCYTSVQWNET [PEPTIDE No. 3 (4B)] | > |

* * *

Listed here: items and their measured Number of samples.
System: serum samples from patients infected with group O HIV-1 retroviruses
Assay: Immunoenzymatic test: Test No. 2 (immunoreactivity with diluted sera)
Assay type: binding, human
Conditions: CLASS C (c: 0.500<OD<1.000); sera of Table V; solid phase peptide 2 μg/ml
No end group written: not given here.
Give the value as a plain number.

| Seq text | Number of samples |
| --- | --- |
| RLLALETFIEENELLNLWGCKNRAICYTSVKWNKT (cysteine pairing not given here) [VAU 35 AA, reference compound] | 0 |

Request: Which Number of samples value belongs to RLQALETLIQNQQRLNLWGCKGKLICYTSVKWNTS (cysteine pairing not given here) [MVP 5180, reference compound] ?
Response: 1

Request: Now try ALETLLQNQQLLNSWGCRGRLVCYTSVRWNET [PEPTIDE No. 11 (18B)] .
Response: 4

Request: Now try LLNSWGCKGRLVCYTS [PEPTIDE No. 10 (14B)] .
Response: 5

Data origin: patent US7053175B1
